- procedure_text: Pharmacokinetics after 21 days dosing in the efficacy study (plasma, tumor and brain concentrations; plasma AUC at steady state), Example 14
- Assay type: in vivo, female BALB/c nude mice
- recorded_conditions: mouse, plasma, po; 3 mg/kg p.o. QD x 21 days; 0.5 h; mean ± SEM
measured_quantity: concentration at 0.5 h
Please format your answer as a value with the unit trailing.

The measured concentration at 0.5 h associated with CCN(C)S(=O)(=O)Nc1ccc(F)c(Oc2ccc3ncn(C4CC5(CCN(C6CC7(C6)CN(c6cc8c(cc6F)c(N6CCC(=O)NC6=O)nn8C)C7)CC5)C4)c(=O)c3c2)c1C#N (stereo not shown) [Compound 141] reads 2850 ng/mL
